- TARGET OR TEST SYSTEM: human CXCR3 (N-delta 4) (Homo sapiens)
- Construct: CD8 leader; Flag tag; expressed in transfected cells; membranes used
- Sequence (P49682 5-368 limits assumed): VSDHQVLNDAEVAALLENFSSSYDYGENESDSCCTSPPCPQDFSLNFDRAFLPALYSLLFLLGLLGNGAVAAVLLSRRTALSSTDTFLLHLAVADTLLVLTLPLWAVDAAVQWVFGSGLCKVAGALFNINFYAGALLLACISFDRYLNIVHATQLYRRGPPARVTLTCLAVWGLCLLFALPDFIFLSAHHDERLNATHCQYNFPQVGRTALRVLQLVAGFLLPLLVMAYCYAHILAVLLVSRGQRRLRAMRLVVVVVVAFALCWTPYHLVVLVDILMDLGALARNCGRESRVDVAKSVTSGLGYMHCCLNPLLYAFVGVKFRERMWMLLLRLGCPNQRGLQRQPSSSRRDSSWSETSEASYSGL
- TEST DESCRIPTION: Human CXCR3 (N-delta 4) scintillation proximity assay (SPA), [125I] IP-10 binding
- RUN PARAMETERS: IC50 rating; Ba/F3-hCXCR3 (N-delta 4) membranes, 25 pM [125I] IP-10
pIC50: −log10 of the molar value.

# MOLECULE, TARGET OR TEST SYSTEM, pIC50
measured = [
    ("CCNC(=O)c1cnc(N2CCN(C3CCN(Cc4ccc(I)cc4)CC3)[C@@H](CC)C2)c(Cl)c1 [compound 218]", "human CXCR3 (N-delta 4) (Homo sapiens)", "> 7.60"),
    ("CNC(=O)c1cnc(N2CCN(C3CCN([C@H]4CCc5cc(Cl)ccc54)CC3)[C@@H](C)C2)c(Cl)c1 [compound 278]", "human CXCR3 (N-delta 4) (Homo sapiens)", "7.00 to 7.60"),
    ("C[C@H]1CN(c2ncc(C(=O)NCc3ccc(Cl)c(Cl)c3)cc2Cl)CCN1C1CCN(C(=O)c2ccc(C#N)cc2)CC1 [compound 319]", "human CXCR3 (N-delta 4) (Homo sapiens)", "7.00 to 7.60"),
    ("CNC(=O)c1cnc(N2CCN(C3CCN(Cc4ccc(Cl)cc4F)CC3)[C@@H](C)C2)c(Cl)c1 [compound 258]", "human CXCR3 (N-delta 4) (Homo sapiens)", "> 7.60"),
]
